# assay.text: Plasma pharmacokinetics, QD and BID cohorts (non-compartmental)
# Format: in vivo, human
# condition.context: human, plasma, oral, 25 mg, QD; C1D21; plasma; read-out: AUC0–last, Mean
property.label: AUC(0-t) (ng·h/mL)
Give a bare numeral; the unit ng·h/mL is implied.

# get_value(readout='AUC(0-t)', item= "Nc1ncc(-c2cnn(C3CCNCC3)c2)cc1-c1nnc(CC2CC2)o1" )
461

====

# assay.text: Plasma pharmacokinetics, QD and BID cohorts (non-compartmental)
# Format: in vivo, human
# condition.context: human, plasma, oral, 50 mg, QD; C1D1; plasma; read-out: AUC0–last, Median
property.label: AUC(0-t) (ng·h/mL)
Give a bare numeral; the unit ng·h/mL is implied.

# get_value(readout='AUC(0-t)', item= "Nc1ncc(-c2cnn(C3CCNCC3)c2)cc1-c1nnc(CC2CC2)o1" )
643
